- study-target: d-enCas12a-Ultra (Acidaminococcus sp., UniProt U2UMQ6 1-1307, E174R;S542R;K548R;M537R;F870L;D908A;E993A;D1235A)
- assay-name: Spec-seq (native PAGE EMSA with sequencing of bound and unbound); 25 mM Tris-HCl pH 7.4, 150 mM KCl, 5 mM MgCl2, 10% glycerol, 1 mM DTT, 40 ng/uL salmon sperm DNA; 400 nM Cas12a, 480 nM crRNA, 50 nM library, 37 C 1 h; native PAGE at room temperature; high values mean tight binding;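 note: relative affinity from the bound to unbound sequence frequency ratio in Spec-seq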
- experimental-setup: protein: recombinant
readout-type: binding signal (lnKA)
Give the quantity in lnKA, number only.

Answered cases to consult:
# binder, readout-number
data = [
    ("GGAG (dsDNA) DNA 1: GCTATCTAGTGCTCAGTACGCACTGGGAGAGGAAACTTCTGGCAGGACCAGGTCATGAGATCGGAAGAGCACACGTCTGAACTCCAGTCA DNA 2: TGACTGGAGTTCAGACGTGTGCTCTTCCGATCTCATGACCTGGTCCTGCCAGAAGTTTCCTCTCCCAGTGCGTACTGAGCACTAGATAGC RNA: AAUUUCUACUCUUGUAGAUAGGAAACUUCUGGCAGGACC", -3.43),
    ("GTCA (dsDNA) DNA 1: GCTATCTAGTGCTCAGTACGCACTGGTCAAGGAAACTTCTGGCAGGACCAGGTCATGAGATCGGAAGAGCACACGTCTGAACTCCAGTCA DNA 2: TGACTGGAGTTCAGACGTGTGCTCTTCCGATCTCATGACCTGGTCCTGCCAGAAGTTTCCTTGACCAGTGCGTACTGAGCACTAGATAGC RNA: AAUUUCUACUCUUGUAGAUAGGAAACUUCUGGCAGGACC", -0.526),
]

Consider now this further binder.
Form: binder = GTAT (dsDNA) DNA 1: GCTATCTAGTGCTCAGTACGCACTGGTATAGGAAACTTCTGGCAGGACCAGGTCATGAGATCGGAAGAGCACACGTCTGAACTCCAGTCA DNA 2: TGACTGGAGTTCAGACGTGTGCTCTTCCGATCTCATGACCTGGTCCTGCCAGAAGTTTCCTATACCAGTGCGTACTGAGCACTAGATAGC RNA: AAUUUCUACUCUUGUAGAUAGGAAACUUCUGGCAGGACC ; binding signal = -3.33
